So I've got GI50 readings for HT29 colon, take a look.

> print(dat)
                            compound.string  measured.on  property.label  experimental.result
1   Nc1ccc(S(=O)(=O)Nc2cnc3c(Cl)cccc3n2)cc1   HT29 colon            GI50           > 82800 nM
2       O=c1[nH]c2ccccc2n1-c1n[nH]c2ccccc12   HT29 colon            GI50             37600 nM
3  COc1cc([N+](=O)[O-])c2ncccc2c1[N+](=O)[O-]   HT29 colon            GI50              2280 nM

We now examine a further molecule.
Ask | May I ask what GI50 has been recorded for "COc1cc(NC(=O)Nc2cnc(Nc3ccc(N4CCOCC4)cc3)nc2Oc2cccc(OC)c2)cc(OC)c1" ?
Reply | 1100 nM
